Reference source: PubChem BioAssay (NCI)

We begin with a simple list: items and their reported growth.
# Tested on: OVCAR-5 ovarian
# PROCEDURE_SUMMARY: NCI-60 one-dose screen, 48 h (100 = growth as untreated, 0 = no growth, -100 = all killed)
# TEST_PARAMETERS: 10 µM unless noted
# Protocol: Growth inhibition of the OVCAR-5 human tumor cell line is measured as a screen for anti-cancer activity. Cells are grown in 96 well plates and exposed to the test compound for 48 hours. Compounds are tested at a single concentration, which is 10^-5 M for most compounds. The reported endpoint is percent growth (GI% or GIPRCNT), where numbers from 0 - 100% represent growth inhibition, and numbers from -100% - 0 represent cell death. For example, a value of 40 represents 60% growth inhibition. […]
The panel holds about 83,000 compounds, 20% with a hit somewhere; the sample as a whole holds those more often.
MEASURED_PROPERTY: growth (%)

>>> recorded_value("Cc1ccccc1-c1cc(Cc2ccc(F)cc2)c(=O)[nH]n1")
106
>>> recorded_value("CCCCCCCCCCN=C(N)N=C(N)N")
64.1
>>> recorded_value("CC(C)(C)OC(=O)N1C/C(=C\\c2ccoc2)C(=O)/C(=C/c2ccoc2)C1")
97
>>> recorded_value("Fc1ccc(C2CC(c3cccc(Nc4ccncc4)c3)=NN2c2cc(Cl)cc(Cl)c2)cc1 (stereo unspecified)")
87.5
>>> recorded_value("COc1ccccc1/C=N/NC1=NC2C(N1)N(C)C(=O)N2C (stereo unspecified)")
102
>>> recorded_value("CC(O)/C=C/C=C/C(O)CC/C=C/C(=O)NCC(C)(C)O (stereo unspecified)")
113
>>> recorded_value("Cc1cc(C)c(C=O)c(C)c1")
98.5
>>> recorded_value("NC(=O)c1ncn(C2OC(CO)C(O)C2O)n1 (stereo unspecified)")
95.2
>>> recorded_value("Cc1c(C2=CCCCC2)c2ccccn2c1C(=O)c1cccc(S(=O)(=O)N2CCOCC2)c1")
106
>>> recorded_value("CCOC(=O)N1CCc2c(sc3nc4nc[nH]n4c(=O)c23)C1")
110
>>> recorded_value("CCOc1ccc(/C=N/Nc2cc(C)nc3ccc(Cl)cc23)cc1")
79.2

* * *

# Tested on: ACHN renal
# PROCEDURE_SUMMARY: NCI-60 one-dose screen, 48 h (100 = growth as untreated, 0 = no growth, -100 = all killed)
# TEST_PARAMETERS: 10 µM unless noted
About 83,000 compounds went through this panel and 20% of them were active in at least one assay; those are over-represented in the sample as a whole.
Measured growth, listed per entry.
MEASURED_PROPERTY: growth (%)

>>> recorded_value("COc1cc2nc(-c3ccc(C(F)(F)F)cc3)cc(OCCCN3CCCCC3)c2cc1OC")
38.2
>>> recorded_value("CS(=O)(=O)c1ccc(-c2cc3c(oc2=O)-c2ccccc2OC3O)cc1 (stereo not given)")
98.6
>>> recorded_value("COc1cc(/C=C/C(=O)c2c(C)oc3nc[nH]c(=O)c23)ccc1O")
101
>>> recorded_value("COc1ccncc1C#Cc1cncc(C(=O)Nc2ccc(CN3CCN(C)CC3)c(C(F)(F)F)c2)c1")
13.2
>>> recorded_value("Cc1cccc(Oc2ccc(Nc3ncnc4ccc(NC(=O)CN(C)C)cc34)cc2Cl)c1")
16.8
>>> recorded_value("O=C(c1ccccc1)N1N=C(c2ccc(-n3ccc(C(F)(F)F)n3)cc2)CC1c1ccc[nH]1 (stereo not given)")
90.6
>>> recorded_value("CCCCCCNC(=O)Oc1ccc(/C(=C(/CC)Cc2ccccc2)c2ccc(OCCN(CC)CC)cc2)cc1")
89.4
>>> recorded_value("COc1ccccc1-c1c(-c2ccc(Cl)cc2)c2cc3c(cc2[nH]c1=O)OCCO3")
70.5
>>> recorded_value("CCCCCN1C=C/C(=C\\C(=O)N(C)c2ccc(Br)cc2)c2ccccc21")
113
>>> recorded_value("CC[C@H](CC[C@@H](C)[C@H]1CC[C@H]2[C@@H]3CC=C4C[C@@H](OCCc5nn[nH]n5)CC[C@]4(C)[C@H]3CC[C@]12C)C(C)C")
105
>>> recorded_value("COc1ccc(-c2nc3sccn3c2/C=C/C(=O)c2cc(OC)c(OC)c(OC)c2)cc1")
55.7
>>> recorded_value("Cc1nc2sc(C(=O)Nc3ccccc3)c(N)c2cc1C(=O)c1ccc(C(F)(F)F)cc1")
80
>>> recorded_value("COc1cc2nc(-c3ccc(C#N)cc3)[nH]c(=O)c2cc1OC")
118
>>> recorded_value("Cc1ccc(S(=O)(=O)Nc2ccc(Cl)cc2)cc1")
99.8
>>> recorded_value("COc1cc(COC(=O)CCCCC[P+](c2ccccc2)(c2ccccc2)c2ccccc2)c(OC)c2c1OCO2")
98.5
>>> recorded_value("COc1cc(OC)cc(C2C3=C(COC3=O)Nc3cc(OC)ccc32)c1 (stereo not given)")
28.1
>>> recorded_value("COc1ccc(C(=O)c2cc3c(N)c(C(=O)Nc4cccc(Cl)c4)sc3nc2C)cc1")
49.3
>>> recorded_value("N#Cc1c(Nc2ccccc2)nn2cc(-c3nc4ccccc4s3)c(N)nc12")
59
>>> recorded_value("O=C(CCN1CCCC1)Nc1ccc2c(NCc3ccc(F)cc3)c3ccccc3nc2c1")
5.75
>>> recorded_value("COc1ccc2c(/C=C3/C(=O)NC(=S)NC3C)cc(=O)oc2c1 (stereo not given)")
108

* * *

# Tested on: SK-MEL-28 melanoma
# PROCEDURE_SUMMARY: NCI-60 one-dose screen, 48 h
# TEST_PARAMETERS: 10 µM unless noted
Compounds without any hit were thinned out: in the full panel of roughly 83,000, 20% have a hit. Activity calls are given as the source filed them. The calls were made as follows: active = growth percent below 10; inactive = the rest.
Outcomes: active, inactive

>>> qualitative_label("CC(=O)c1c[nH]c2ccc(-c3ccnc(Nc4ccc(NC(=O)C5CCCC5)c(CN5CCOCC5)c4)n3)cc12")
"active"
>>> qualitative_label("Cc1ccc2[nH]c(=S)n(-c3ccc(S(=O)(=O)Nc4ccc(Cl)nn4)cc3)c(=O)c2c1")
"inactive"
>>> qualitative_label("COc1cc2nc(-c3ccc(C#N)cc3)[nH]c(=O)c2cc1OC")
"inactive"
>>> qualitative_label("CCNC(=S)NNC(=O)c1cc2ccc1CCc1ccc(cc1)CC2")
"inactive"
>>> qualitative_label("CCN1C(=O)/C(=c2\\sc3n(c2=O)NC2C(N=3)N(CC)C(=O)N2CC)c2ccccc21 (stereo not given)")
"inactive"

* * *

# Tested on: TK-10 renal
# PROCEDURE_SUMMARY: NCI-60 one-dose screen, 48 h (100 = growth as untreated, 0 = no growth, -100 = all killed)
# TEST_PARAMETERS: 10 µM unless noted
# Protocol: Growth inhibition of the TK-10 human tumor cell line is measured as a screen for anti-cancer activity. Cells are grown in 96 well plates and exposed to the test compound for 48 hours. Compounds are tested at a single concentration, which is 10^-5 M for most compounds. The reported endpoint is percent growth (GI% or GIPRCNT), where numbers from 0 - 100% represent growth inhibition, and numbers from -100% - 0 represent cell death. For example, a value of 40 represents 60% growth inhibition. […]
About 83,000 compounds went through this panel and 20% of them were active in at least one assay; those are over-represented in the sample as a whole.
MEASURED_PROPERTY: growth (%)

>>> recorded_value("CC(c1ccccc1)n1ccnc1CO (configuration not stated)")
88.2
>>> recorded_value("CCCCN(CCCC)CCc1c(C)cc(C)c(CCN(CCCC)CCCC)c1O")
37.4
>>> recorded_value("NC(=O)c1cccc(-c2ccccc2N2CCCCC2)c1")
103
>>> recorded_value("CCOC(=O)c1ccc(Nc2ccnc(SCC(=O)c3ccc(C#N)cc3)n2)cc1")
90.4
>>> recorded_value("C#CCNC(=O)[C@H](Cc1ccccc1)NC(=O)[C@]12CC[C@@H](C(=C)C)[C@@H]1[C@H]1CC[C@@H]3[C@@]4(C)Cc5c([nH]c6ccccc56)C(C)(C)[C@@H]4CC[C@@]3(C)[C@]1(C)CC2")
90.4
>>> recorded_value("CCC(=O)c1ccc(O)c(OC)c1")
99.2
>>> recorded_value("COc1ccc(C(=O)c2cc(C)c(OC)c(C)c2)c(OC)c1O")
58.5
>>> recorded_value("C=C1C(=O)O[C@H]2[C@H]1CC/C(COC(=O)/C=C/c1c[nH]c3ccccc13)=C\\CC[C@@]1(C)O[C@@H]21")
-99.2
>>> recorded_value("CN1C(=O)N(C)[C@H]2NC(NN)=N[C@H]21")
97.4
>>> recorded_value("CS(=O)(=O)c1ccc(-c2cc3c(oc2=O)-c2ccccc2OC3O)cc1 (configuration not stated)")
99.9
>>> recorded_value("O=C1C(=O)c2c(nc3ncccn23)-c2ccccc21")
-52.4
>>> recorded_value("CCSc1ccc2c(c1)N(CCCN1CCN(C)CC1)c1ccccc1S2")
55.6
>>> recorded_value("Fc1cc(C2=NNC(c3ccc[nH]3)C2)ccc1-n1ccc(C(F)(F)F)n1 (configuration not stated)")
117
>>> recorded_value("COc1ccc(-c2nc(N=Nc3c(O)[nH]c4ccccc34)nc(N3CCOCC3)c2C#N)cc1")
71.5
>>> recorded_value("COc1ccc(OC)c(/C=C/[C@H]2O[C@@H](C)[C@H](O)[C@@H]2O)c1")
95.7
>>> recorded_value("COc1cccc2cc(-c3cc4ccccc4[nH]3)/c(=N/C(=S)Nc3ccc(C)cc3)oc12")
94.3
>>> recorded_value("COc1ccc2c(Nc3ccc(NS(C)(=O)=O)cc3)c3ccccc3nc2c1")
9.37
>>> recorded_value("CC(O)/C=C/C=C/C(O)CC/C=C/C(=O)NCC(C)(C)O (configuration not stated)")
109
>>> recorded_value("CC(C)CN(C(=O)c1ccc(Cl)cc1)c1c(N)n(CC(C)C)c(=O)[nH]c1=O")
125
>>> recorded_value("O=C(CN1CCOCC1)Nc1ccc2ncnc(Nc3ccc(Oc4cccc(F)c4)c(Cl)c3)c2c1")
39.5
>>> recorded_value("COc1cccc(CCC(=O)c2cc3c(N)c(C(=O)Nc4ccccc4)sc3nc2C)c1")
70.9
>>> recorded_value("COc1cccc(-c2nc3occn3c2-c2ccnc(NCCCNS(=O)(=O)c3cccc(F)c3)n2)c1")
131
